meta.source: patent US20100152230A1

[
  {
    "structure.smiles.string": "CCCCCc1cc2c(nc(O)n2CCCNC(C)=O)c(N)n1",
    "melting point": "189 to 191 °C"
  },
  {
    "structure.smiles.string": "CCCCCc1cc2c(nc(O)n2[C@@H](C)c2ccccc2)c(N)n1",
    "melting point": "146.7 to 147.7 °C"
  },
  {
    "structure.smiles.string": "CCCCCc1cc2c(nc(O)n2[C@H](C)c2ccccc2)c(N)n1",
    "melting point": "147.1 to 148 °C"
  },
  {
    "structure.smiles.string": "CCCCCc1cc2c(nc(O)n2CC2CCN(S(=O)(=O)CC)CC2)c(N)n1",
    "melting point": "222 to 225 °C"
  },
  {
    "structure.smiles.string": "CCCCCc1cc2c(nc(O)n2CCS(C)(=O)=O)c(N)n1",
    "melting point": "223 to 225 °C"
  },
  {
    "structure.smiles.string": "CCCCCc1cc2c(nc(O)n2CC2CCN(C(C)=O)CC2)c(N)n1",
    "melting point": "228 to 231 °C"
  },
  {
    "structure.smiles.string": "Cc1cc(Cn2c(O)nc3c(N)nc(C)c(C)c32)on1",
    "melting point": "> 300 °C"
  },
  {
    "structure.smiles.string": "CCCCCc1cc2c(nc(O)n2CC2CCNCC2)c(N)n1",
    "melting point": "246 to 249 °C"
  },
  {
    "structure.smiles.string": "CCCCCc1cc2c(nc(O)n2CC2CCN(S(C)(=O)=O)CC2)c(N)n1",
    "melting point": "228 to 231 °C"
  },
  {
    "structure.smiles.string": "Cc1nc(N)c2nc(O)n(Cc3cc(-c4ccc(F)cc4)no3)c2c1C",
    "melting point": "250 °C"
  },
  {
    "structure.smiles.string": "CCOCCc1cc2c(nc(O)n2CCCCS(C)(=O)=O)c(N)n1",
    "melting point": "203 to 206 °C"
  },
  {
    "structure.smiles.string": "CCCCCc1cc2c(nc(O)n2Cc2cccnc2)c(N)n1",
    "melting point": "243 to 245 °C"
  },
  {
    "structure.smiles.string": "CCCCCc1cc2c(nc(O)n2CCCCS(C)(=O)=O)c(N)n1",
    "melting point": "188 to 189 °C"
  }
]
